molecular target: Thyroid hormone receptor beta (Homo sapiens) (UniProt P10828); assay: Secondary Confirmation Assay for Inhibitors of the Interaction of Thyroid Hormone Receptor and Steroid Receptor Coregulator 2, Texas Red Fluoroprobe; settings: TRb LBD / Texas Red SRC2 peptide fluorescence polarization
Sequence (P10828 whole entry, looked up, the tested form may be a part): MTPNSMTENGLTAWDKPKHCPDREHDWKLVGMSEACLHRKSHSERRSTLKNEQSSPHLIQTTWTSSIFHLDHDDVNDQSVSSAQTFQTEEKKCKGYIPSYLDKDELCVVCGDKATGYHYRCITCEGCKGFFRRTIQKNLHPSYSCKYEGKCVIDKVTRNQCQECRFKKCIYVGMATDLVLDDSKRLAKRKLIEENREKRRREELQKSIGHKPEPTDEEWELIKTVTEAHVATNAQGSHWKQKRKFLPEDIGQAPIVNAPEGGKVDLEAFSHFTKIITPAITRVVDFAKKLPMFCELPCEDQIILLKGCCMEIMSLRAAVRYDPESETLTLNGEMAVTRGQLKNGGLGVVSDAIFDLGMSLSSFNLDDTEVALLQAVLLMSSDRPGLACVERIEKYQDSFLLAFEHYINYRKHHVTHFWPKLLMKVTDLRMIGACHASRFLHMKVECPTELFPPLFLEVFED
Calls of active or inactive are those of the source. The call rests on the fitted dose curve.
API: response.call in active, inactive

Here are 5 molecules together with their reported answers.
Molecule | Measurement Target | Assigned Category
C[S+](=O)([O-])c1ccc(C(=O)OCC(=O)N2CCNC(=O)C2)cc1[N+](=O)[O-] | Thyroid hormone receptor beta (Homo sapiens) (UniProt P10828) | inactive
CN1CCN(C(=O)COC(=O)c2ccc(S(C)(=O)=O)c([N+](=O)[O-])c2)CC1 | Thyroid hormone receptor beta (Homo sapiens) (UniProt P10828) | inactive
CS(=O)(=O)c1ccc(C(=O)OCC(=O)NCC2CCCO2)cc1[N+](=O)[O-] (stereo not drawn) | Thyroid hormone receptor beta (Homo sapiens) (UniProt P10828) | inactive
CS(=O)(=O)c1ncc(C(=O)OCC(=O)NC2C3CC4CC(C3)CC2C4)cn1 (stereo not drawn) | Thyroid hormone receptor beta (Homo sapiens) (UniProt P10828) | active
CS(=O)(=O)c1ccc(C(=O)OCC(=O)Nc2cc(C(F)(F)F)ccc2Cl)cc1[N+](=O)[O-] | Thyroid hormone receptor beta (Homo sapiens) (UniProt P10828) | inactive

Task item: // param item: CS(=O)(=O)c1ccc(C(=O)OCC(=O)N2CCN(CCC3CCCCC3)CC2)cc1[N+](=O)[O-] ; yields the recorded call
Reply: active

Task item: Please do the same for CS(=O)(=O)c1ccc(C(=O)OCC(=O)N2CCC(c3ccccc3)CC2)cc1[N+](=O)[O-] as well.
Reply: active

Task item: Please do the same for CS(=O)(=O)c1ccc(C(=O)OCC(=O)N2CCC(Cc3ccccc3)CC2)cc1[N+](=O)[O-] as well.
Reply: active

Task item: Please do the same for CS(=O)(=O)c1ccc(C(=O)NCC(=O)NC2C3CC4CC(C3)CC2C4)cc1[N+](=O)[O-] (stereo not drawn) as well.
Reply: active

Task item: Please do the same for Cc1cc(C(=O)OCC(=O)NC(=O)C2CCCCC2)ccc1[N+](=O)[O-] as well.
Reply: inactive

Task item: Please do the same for CC(OC(=O)c1ccc(S(C)(=O)=O)c([N+](=O)[O-])c1)C(=O)NC1C2CC3CC(C2)CC1C3 (stereo not drawn) as well.
Reply: active

Task item: Please do the same for CC1CCN(C(=O)COC(=O)c2ccc(S(C)(=O)=O)c([N+](=O)[O-])c2)CC1 as well.
Reply: active

Task item: Please do the same for C[S+](=O)([O-])c1ccc(C(=O)OCC(=O)N2CCN([S+](C)(=O)[O-])CC2)cc1[N+](=O)[O-] as well.
Reply: inactive

Task item: Please do the same for CS(=O)(=O)c1ccc(C(=O)OCC(=O)NC(=O)C2CCCCC2)cc1[N+](=O)[O-] as well.
Reply: active

Task item: Please do the same for CS(=O)(=O)c1ccc(C(=O)OCC(=O)NC(=O)NC2CCCCC2)cc1[N+](=O)[O-] as well.
Reply: active

---

molecular target: Thyroid hormone receptor beta (Homo sapiens); test: Secondary Confirmation Assay for Inhibitors of the Interaction of Thyroid Hormone Receptor and Steroid Receptor Coregulator 2, Texas Red Fluoroprobe; conditions: TRb LBD / Texas Red SRC2 peptide fluorescence polarization
The source made the active and inactive calls. The call rests on the fitted dose curve.
API: response.call in active, inactive

Here are 3 compounds together with their reported answers.
Compound | Assigned Category
COc1cccc(CNC(=O)COC(=O)c2ccc(S(C)(=O)=O)c([N+](=O)[O-])c2)c1 | active
O=C(COC(=O)c1ccc(C(F)(F)F)cc1)NC(=O)C1CCCCC1 | inactive
CS(=O)(=O)c1ccc(-c2nc(C(=O)NC3C4CC5CC(C4)CC3C5)cs2)cc1[N+](=O)[O-] (stereo not drawn) | active

Task item: // param item: CS(=O)(=O)c1ccc(C(=O)OCC(=O)N2CC(=O)Nc3ccccc32)cc1[N+](=O)[O-] ; yields the recorded call
Reply: active

Task item: Please do the same for Cc1nc(-c2ccc(S(C)(=O)=O)c([N+](=O)[O-])c2)sc1C(=O)NC1C2CC3CC(C2)CC1C3 (stereo not drawn) as well.
Reply: active
